target: T1, PKC-δ (purified isoform); assay: competitive ELISA, coated purified PKC-δ, vs anti-PKC δ (SC-213); PRE 50 µM
T1 construct: also called PKC-delta
T1 sequence (Q05655 whole entry, stated change not applied, canonical isoform): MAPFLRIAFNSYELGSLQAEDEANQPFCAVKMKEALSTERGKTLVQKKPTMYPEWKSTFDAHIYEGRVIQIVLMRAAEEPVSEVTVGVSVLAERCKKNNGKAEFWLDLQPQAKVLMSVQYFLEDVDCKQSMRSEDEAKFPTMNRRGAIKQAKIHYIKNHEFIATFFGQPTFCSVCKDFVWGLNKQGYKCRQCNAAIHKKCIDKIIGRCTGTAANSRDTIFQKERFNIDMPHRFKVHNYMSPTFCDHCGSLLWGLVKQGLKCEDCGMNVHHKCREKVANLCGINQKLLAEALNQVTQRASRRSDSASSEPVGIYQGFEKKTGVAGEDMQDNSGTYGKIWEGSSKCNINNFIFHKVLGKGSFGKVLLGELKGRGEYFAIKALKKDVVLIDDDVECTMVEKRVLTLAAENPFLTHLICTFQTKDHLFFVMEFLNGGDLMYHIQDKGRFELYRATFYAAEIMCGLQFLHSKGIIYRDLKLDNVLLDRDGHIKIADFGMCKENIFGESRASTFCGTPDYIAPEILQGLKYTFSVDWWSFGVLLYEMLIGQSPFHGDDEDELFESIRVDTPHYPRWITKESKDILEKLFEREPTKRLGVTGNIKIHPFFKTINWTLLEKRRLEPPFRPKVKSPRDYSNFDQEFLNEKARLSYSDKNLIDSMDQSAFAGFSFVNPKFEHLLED
ATTRIBUTE_MEASURED: relative binding capacity (100-%n, DMSO subtracted) (%)
Report the value in % with no unit label.

Worked examples follow.
| BINDER | RESULT_UNITS | NUMERIC_VALUE |
| --- | --- | --- |
| Ac-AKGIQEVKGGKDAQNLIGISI-NH2 (also called peptide PRE 5) [PRE 5] | % | 0.2 |
| Ac-KDAQNLI-NH2 (Ac-KDAQNLI-NH2; also called peptide PRE 12) [PRE 12] | % | 2.26 |
| Ac-KDAQNLIGISI-NH2 (also called peptide PRE 4) [PRE 4] | % | 29.2 |
| Ac-RDAQNLIGISI-NH2 (also called peptide PRE 11) [PRE 11] | % | 34.1 |
| Ac-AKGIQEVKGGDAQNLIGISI-NH2 (also called peptide PRE 3) [PRE 3] | % | 48.3 |

## Input Item under review: Ac-ISIGILQNADK-NH2 (also called peptide PRE 7) [PRE 7] . Reported relative binding capacity (100-%n, DMSO subtracted)?
## Output 3.06

## Input Item under review: Ac-ISIGILNQADK-NH2 (also called peptide PRE 10) [PRE 10] . Reported relative binding capacity (100-%n, DMSO subtracted)?
## Output 0
